target: human Y4 receptor (human, UniProt P50391 1-375); experiment: 125I-PP displacement
Sequence (P50391 whole entry): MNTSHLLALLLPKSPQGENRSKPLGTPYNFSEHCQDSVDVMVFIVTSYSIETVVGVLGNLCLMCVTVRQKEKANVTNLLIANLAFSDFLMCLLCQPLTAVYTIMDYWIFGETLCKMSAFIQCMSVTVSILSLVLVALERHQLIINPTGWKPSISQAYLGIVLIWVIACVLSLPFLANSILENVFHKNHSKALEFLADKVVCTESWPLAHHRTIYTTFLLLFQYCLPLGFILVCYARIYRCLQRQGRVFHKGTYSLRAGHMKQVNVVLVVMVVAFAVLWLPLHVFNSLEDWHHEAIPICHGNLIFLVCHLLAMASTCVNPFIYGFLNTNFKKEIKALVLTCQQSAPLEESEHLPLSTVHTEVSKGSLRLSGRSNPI
For each of the binders below, state its pIC50.
Give bare numbers, as −log10 of the molar value.

Answered examples (2):
Any idea what pIC50 was measured for HAPLEPKYPGDDATPEELAHYYSELRRYINKLTRPRY [4058710] ?
9.89

Any idea what pIC50 was measured for PLEPEYPGDNATPEEMAKYAADLRRYINKLTRPRY [4058675] ?
10.02

Need pIC50 for each of these binders.
1. YAPLEPEYPGDDATPQEMARYAAELRRYINKLTRPRY [4058684]
2. AAPLEPEYPGDDATPQEMARYAAELRRYINKLTRPRY [4058683]
3. PLEPEYPGDDATPQEMARYAAELRRYINKLTRPRY [4058679]
4. GAPLEPKYPGDNATPEELAKYAAELRRYINKLTRPRY [4058691]
5. AKPLEPKYPGDNATPEELAKYAAELRRYINKLTRPRY [4058690]
6. APLEPHYPGDNATPEEMAKYAAELRRYINKLTRPRY [4058696]
7. HAPLEPKYPGDNATPEELAKYAAELRRYINKLTRPRY [4058692]
8. AAPLEPKYPGDDATPEELAHYYSELRRYINKLTRPRY [4058708]

1. 10.06
2. 10.09
3. 10.11
4. 10.01
5. 10.15
6. 10.35
7. 9.88
8. 10.10
